# Test system: E. faecium ATCC 19434
# protocol-details: MIC, CLSI broth microdilution (Table 1)
# Type: cell-based
# conditions-used: Enterococcus faecium, ATCC19434; Gram positive; MHB, 37° C., 16-20 hours; read-out: MIC E. faecium ATCC 19434
Structures can show the parent of a compound that is named as a salt.
Items are presented alongside their recorded log10 of MIC.
log10 MIC, mg/L

molecule: Cc1c(-c2ccc(N(C)C)cc2)ccn2c(=O)c(C(=O)O)cc(C3CC3)c12 [Example 25 K salt]
log10 of MIC: 0.90
//
molecule: COc1cc(-c2ccn3c(=O)c(C(=O)O)cc(C4CC4)c3c2C)ccc1N [Example 12 K salt]
log10 of MIC: 0.00
//
molecule: Cc1c(-c2cccc(N)c2)c(F)cn2c(=O)c(C(=O)O)cc(C3CC3)c12 [Example 4 K salt]
log10 of MIC: 0.00
//
molecule: COc1c(N2C[C@@H]3CCCN[C@@H]3C2)c(F)cc2c(=O)c(C(=O)O)cn(C3CC3)c12 [Moxyfloxacin, reference compound]
log10 of MIC: 0.60
//
molecule: Cc1c(-c2ccc(N)cc2)ccn2c(=O)c(C(=O)O)cc(C3CC3)c12 [Example 18 K salt]
log10 of MIC: -0.60

query: Quote E. faecium ATCC 19434 log10 of MIC for entry Cc1cc(-c2ccn3c(=O)c(C(=O)O)cc(C4CC4)c3c2C)ccc1N [Example 19 K salt] .
result: 0.00

query: Quote E. faecium ATCC 19434 log10 of MIC for entry Cc1c(-c2ccc(F)cc2)ccn2c(=O)c(C(=O)O)cc(C3CC3)c12 [Example 44 K salt] .
result: -0.30

query: Quote E. faecium ATCC 19434 log10 of MIC for entry Cc1c(-c2ccc(N)cc2F)ccn2c(=O)c(C(=O)O)cc(C3CC3)c12 [Example 7 K salt] .
result: -0.30
